Readings of melting point for the listed compounds

Field: example entries. Status: answers known.
> print(dat)
                                   compound       reported
1  Cc1nc2ccc(F)cc2n1-c1cc(N)nc(Nc2ccc(C#N)cc2)n1 [Cpd 137]  183 to 185 °C
2  Cc1nc2cc(F)ccc2n1-c1cc(N)nc(Nc2ccc(OC(F)F)c(F)c2)n1 [Cpd 105]  172 to 173 °C
3  CCc1nc2ccc(F)cc2n1-c1cc(N)nc(Nc2cccc(F)c2)n1 [Cpd 163]  169 to 171 °C

INPUT: // melting point lookup, key: Nc1cc(-n2c(C3CC3)nc3cc(F)ccc32)nc(Nc2ccc(OC(F)F)cc2)n1 [Cpd 80]
OUTPUT: 136 to 138 °C

INPUT: // melting point lookup, key: Cc1nc2ccc(F)cn2c1-c1cc(N)nc(Nc2ccc(Cl)cc2)n1 [Cpd 172]
OUTPUT: 243 to 246 °C

INPUT: // melting point lookup, key: CC(C)c1nc2ccc(F)cc2n1-c1cc(N)nc(Nc2ccc(OC(F)F)cc2)n1 [Cpd 79]
OUTPUT: 167 to 169 °C
